target: UniProtKB P00533; test: Inhibition of EGFR after 30 mins by chemiluminescence ELISA
Sequence (P00533 whole entry): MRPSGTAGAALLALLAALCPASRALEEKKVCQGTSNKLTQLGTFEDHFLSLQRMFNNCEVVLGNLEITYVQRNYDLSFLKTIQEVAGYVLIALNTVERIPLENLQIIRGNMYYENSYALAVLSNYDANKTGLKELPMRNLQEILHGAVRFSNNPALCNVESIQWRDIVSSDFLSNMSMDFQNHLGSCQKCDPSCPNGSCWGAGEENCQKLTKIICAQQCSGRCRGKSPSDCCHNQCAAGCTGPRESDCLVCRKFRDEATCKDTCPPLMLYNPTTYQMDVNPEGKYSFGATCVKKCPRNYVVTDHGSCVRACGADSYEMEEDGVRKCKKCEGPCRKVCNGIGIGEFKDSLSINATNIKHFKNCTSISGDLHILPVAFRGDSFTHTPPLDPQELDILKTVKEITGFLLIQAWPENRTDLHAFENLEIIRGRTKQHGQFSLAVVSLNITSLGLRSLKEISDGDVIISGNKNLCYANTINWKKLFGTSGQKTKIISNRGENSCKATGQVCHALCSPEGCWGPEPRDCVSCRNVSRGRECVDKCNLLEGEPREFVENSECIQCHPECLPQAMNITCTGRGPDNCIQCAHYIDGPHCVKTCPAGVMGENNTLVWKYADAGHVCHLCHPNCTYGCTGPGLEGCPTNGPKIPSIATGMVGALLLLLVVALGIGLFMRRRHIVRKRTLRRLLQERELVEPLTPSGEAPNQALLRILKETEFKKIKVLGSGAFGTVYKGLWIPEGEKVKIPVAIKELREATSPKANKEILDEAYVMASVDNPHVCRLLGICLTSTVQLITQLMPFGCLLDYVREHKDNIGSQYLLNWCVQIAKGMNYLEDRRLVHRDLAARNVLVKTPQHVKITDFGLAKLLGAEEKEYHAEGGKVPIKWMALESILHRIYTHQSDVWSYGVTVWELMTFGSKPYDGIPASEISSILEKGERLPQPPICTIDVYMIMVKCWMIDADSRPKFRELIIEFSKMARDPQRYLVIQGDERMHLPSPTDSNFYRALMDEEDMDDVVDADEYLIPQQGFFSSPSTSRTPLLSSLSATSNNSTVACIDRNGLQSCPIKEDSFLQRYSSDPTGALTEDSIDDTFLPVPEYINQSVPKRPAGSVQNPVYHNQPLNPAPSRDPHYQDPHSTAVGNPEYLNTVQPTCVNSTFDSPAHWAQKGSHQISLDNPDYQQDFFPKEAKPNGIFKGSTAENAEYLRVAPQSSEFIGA
property: pIC50
In plain terms, pIC50 is the concentration in mol/L turned into minus its base-10 logarithm.

Could you tell me which pIC50 is on file for NCCc1c[nH]c2ccc(OCCc3ccc(O)cc3)cc12 ?
5.68

Check COc1ccc(CCCCCn2c3c(c4cc(OCCc5ccc(O)cc5)ccc42)CC(N)CC3)cc1 (configuration not stated) too.
5.86

Check NCCc1cn(Cc2ccc(-c3cccc(C(F)(F)F)c3)cc2)c2ccc(OCCc3ccc(O)cc3)cc12 too.
5.95

Check NCCc1cn(CCCCCc2ccccc2)c2ccc(OCCc3ccc(O)cc3)cc12 too.
5.79

Check NC1CCc2[nH]c3ccc(OCCc4ccc(O)cc4)cc3c2C1 (configuration not stated) too.
4.82

Check COc1ccc(CCCCCn2cc(CCN)c3cc(OCCc4ccc(O)cc4)ccc32)cc1 too.
5.36

Check NC1CCc2c(c3cc(OCCc4ccc(O)cc4)ccc3n2CCCCCc2ccccc2)C1 (configuration not stated) too.
6.00

Check COc1ccc(-c2ccc(Cn3cc(CCN)c4cc(OCCc5ccc(O)cc5)ccc43)cc2)cc1 too.
5.90

Check COc1ccc(CCOc2ccc3c(c2)c(CCN)cn3CCCCCc2ccc(SC)cc2)cc1 too.
5.61

Check CN(C)c1ccc(CCCCCn2c3c(c4cc(OCCc5ccc(O)cc5)ccc42)CC(N)CC3)cc1 (configuration not stated) too.
5.72

Check NCCc1cn(Cc2ccc(-c3ccccc3)cc2)c2ccc(OCCc3ccc(O)cc3)cc12 too.
5.89

Check CSc1ccc(CCCCCn2cc(CCN)c3cc(OCCc4ccc(O)cc4)ccc32)cc1 too.
5.72

Check NC1CCc2c(c3cc(OCCc4ccc(O)cc4)ccc3n2CCCCCc2ccc(C(F)(F)F)cc2)C1 (configuration not stated) too.
5.56

Check NC1CCc2c(c3cc(OCCc4ccc(O)cc4)ccc3n2CCCc2ccccc2)C1 (configuration not stated) too.
5.60

* * *

biological target: Vascular endothelial growth factor receptor 2 (Homo sapiens, UniProt P35968); assay: Inhibition of VEGFR2 after 30 mins by chemiluminescence ELISA
Sequence (P35968 whole entry): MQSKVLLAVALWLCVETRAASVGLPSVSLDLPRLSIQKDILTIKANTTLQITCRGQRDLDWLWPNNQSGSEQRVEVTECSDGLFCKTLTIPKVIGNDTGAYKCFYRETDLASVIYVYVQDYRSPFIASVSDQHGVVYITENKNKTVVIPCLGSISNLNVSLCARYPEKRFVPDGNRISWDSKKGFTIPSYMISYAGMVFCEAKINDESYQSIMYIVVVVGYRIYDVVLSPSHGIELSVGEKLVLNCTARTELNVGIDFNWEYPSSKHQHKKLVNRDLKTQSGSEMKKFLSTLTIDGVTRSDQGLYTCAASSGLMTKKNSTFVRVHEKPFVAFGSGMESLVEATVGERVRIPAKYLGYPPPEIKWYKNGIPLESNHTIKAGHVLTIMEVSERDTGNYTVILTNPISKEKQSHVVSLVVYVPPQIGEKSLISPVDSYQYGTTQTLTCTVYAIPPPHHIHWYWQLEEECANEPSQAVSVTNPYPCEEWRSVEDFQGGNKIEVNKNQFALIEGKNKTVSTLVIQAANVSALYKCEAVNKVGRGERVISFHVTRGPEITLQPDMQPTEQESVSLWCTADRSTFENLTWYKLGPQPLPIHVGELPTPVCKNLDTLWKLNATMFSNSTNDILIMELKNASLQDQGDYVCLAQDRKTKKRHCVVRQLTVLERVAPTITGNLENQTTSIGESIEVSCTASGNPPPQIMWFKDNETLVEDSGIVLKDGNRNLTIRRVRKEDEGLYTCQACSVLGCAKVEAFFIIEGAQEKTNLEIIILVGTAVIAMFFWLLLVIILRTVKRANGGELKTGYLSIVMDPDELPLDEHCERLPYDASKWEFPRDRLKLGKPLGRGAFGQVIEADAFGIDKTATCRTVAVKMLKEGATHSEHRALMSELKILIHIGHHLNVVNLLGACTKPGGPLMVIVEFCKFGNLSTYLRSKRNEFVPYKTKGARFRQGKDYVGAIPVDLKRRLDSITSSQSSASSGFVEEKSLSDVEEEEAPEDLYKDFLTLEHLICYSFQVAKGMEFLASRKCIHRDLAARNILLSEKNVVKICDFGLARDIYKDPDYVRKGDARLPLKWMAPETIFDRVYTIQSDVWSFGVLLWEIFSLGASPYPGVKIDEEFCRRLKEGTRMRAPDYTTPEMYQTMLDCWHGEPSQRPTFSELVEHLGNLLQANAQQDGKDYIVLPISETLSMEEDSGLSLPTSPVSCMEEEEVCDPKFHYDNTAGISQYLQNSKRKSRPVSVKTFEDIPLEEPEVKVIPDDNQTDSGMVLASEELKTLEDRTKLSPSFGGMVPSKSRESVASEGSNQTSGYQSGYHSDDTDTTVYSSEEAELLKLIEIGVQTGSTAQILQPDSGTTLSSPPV
property: pIC50
In plain terms, pIC50 is the concentration in mol/L turned into minus its base-10 logarithm.

Could you tell me which pIC50 is on file for NCCc1cn(Cc2ccc(-c3ccccc3)cc2)c2ccc(OCCc3ccc(O)cc3)cc12 ?
5.93

Check NC1CCc2c(c3cc(OCCc4ccc(O)cc4)ccc3n2CCCCCc2ccc(C(F)(F)F)cc2)C1 (centres undefined) too.
5.66

Check CSc1ccc(CCCCCn2cc(CCN)c3cc(OCCc4ccc(O)cc4)ccc32)cc1 too.
5.91

Check NC1CCc2[nH]c3ccc(OCCc4ccc(O)cc4)cc3c2C1 (centres undefined) too.
4.57

Check NC1CCc2c(c3cc(OCCc4ccc(O)cc4)ccc3n2CCCCCc2ccccc2)C1 (centres undefined) too.
5.97

Check COc1ccc(CCCCCn2cc(CCN)c3cc(OCCc4ccc(O)cc4)ccc32)cc1 too.
5.66

Check COc1ccc(-c2ccc(Cn3cc(CCN)c4cc(OCCc5ccc(O)cc5)ccc43)cc2)cc1 too.
6.00

* * *

test system: HT-29; assay: Cytotoxicity against human HT-29 cells after 24 hrs by WST1 assay; format: functional, cell-based; conditions: HT-29, 24 h
Assignment: determine reported IC50 for the given compounds.
Numbers only; they are read as µM.

Could you tell me which IC50 is on file for COc1ccc(-c2ccc(Cn3cc(CCN)c4cc(OCCc5ccc(O)cc5)ccc43)cc2)cc1 ?
8.5

Check NCCc1cn(Cc2ccc(-c3cccc(C(F)(F)F)c3)cc2)c2ccc(OCCc3ccc(O)cc3)cc12 too.
7.95

Check NC1CCc2c(c3cc(OCCc4ccc(O)cc4)ccc3n2CCCCCc2ccccc2)C1 (stereo not drawn) too.
11
